target: Prostaglandin D2 receptor 2 (Homo sapiens) (UniProt Q9Y5Y4); details: CHO-K1
Sequence (Q9Y5Y4 whole entry): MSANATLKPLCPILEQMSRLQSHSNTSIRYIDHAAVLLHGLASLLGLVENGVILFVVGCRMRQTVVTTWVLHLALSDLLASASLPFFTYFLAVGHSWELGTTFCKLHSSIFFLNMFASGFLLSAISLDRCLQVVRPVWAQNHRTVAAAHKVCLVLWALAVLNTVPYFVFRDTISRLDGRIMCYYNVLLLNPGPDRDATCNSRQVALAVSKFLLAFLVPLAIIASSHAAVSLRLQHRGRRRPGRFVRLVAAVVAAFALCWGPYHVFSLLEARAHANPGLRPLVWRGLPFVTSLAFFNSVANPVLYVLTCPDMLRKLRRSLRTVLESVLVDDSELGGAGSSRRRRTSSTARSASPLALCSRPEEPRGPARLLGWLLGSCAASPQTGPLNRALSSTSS
Description: Binding affinity to CRTh2 receptor (unknown origin) overexpressed in CHOK1 cell membranes assessed as dissociation half life at 10 X IC50 preincubated for 1 hr followed [35S]-GTPgammaS addition measured after 2 hrs by liquid scintillation counting analysis
Classification field: Fulfilled = T1/2 at or over 1 h; Not fulfilled = T1/2 under 1 h.

// below: answered molecules
>>> assignedclass("CCN(Cc1cc(C(F)(F)F)ccc1-c1cn(CC(=O)O)c2ccncc12)C(=O)C1CC1")
"Fulfilled"
>>> assignedclass("CCN(Cc1cc(C(F)(F)F)ccc1-c1cc(CC(=O)O)cc2cnn(C)c12)C(=O)C1CC1")
"Fulfilled"
>>> assignedclass("CCN(Cc1cc(C(F)(F)F)ccc1-c1cc(CC(=O)O)c2ccnn2c1)C(=O)C1CC1")
"Not fulfilled"
>>> assignedclass("CCN(Cc1cc(C(F)(F)F)ccc1-c1cn(CC(=O)O)c2ccccc12)C(=O)C1CC1")
"Fulfilled"

Input: Reported T1/2 at or above 1 h? CCN(Cc1cc(C(F)(F)F)ccc1-c1cc(CC(=O)O)c2ccncn12)C(=O)C1CC1
Output: Fulfilled

Input: Reported T1/2 at or above 1 h? CCN(Cc1cc(C(F)(F)F)ccc1-c1cc(CC(=O)O)cc2cn(C)nc12)C(=O)C1CC1
Output: Fulfilled

Input: Reported T1/2 at or above 1 h? CCN(Cc1cc(C(F)(F)F)ccc1-c1nc(CC(=O)O)c2ccccn12)C(=O)C1CC1
Output: Not fulfilled

Input: Reported T1/2 at or above 1 h? CCN(Cc1cc(C(F)(F)F)ccc1-c1nn(CC(=O)O)c2ccccc12)C(=O)C1CC1
Output: Fulfilled

Input: Reported T1/2 at or above 1 h? CCN(Cc1cc(C(F)(F)F)ccc1-c1cc(CC(=O)O)cn2ccnc12)C(=O)C1CC1
Output: Not fulfilled
